Molecular target: T1, VEGFR-1-Fc (UniProt P17948 27-338)
T1 construct: domain: first three Ig domains; expressed in Drosophila S2 cells, purified on Protein A sepharose; also called VEGFR-1-Fc fusion protein; not shown: Fc fragment from the Signal-pIgPlus vector
T1 sequence (P17948 27-338): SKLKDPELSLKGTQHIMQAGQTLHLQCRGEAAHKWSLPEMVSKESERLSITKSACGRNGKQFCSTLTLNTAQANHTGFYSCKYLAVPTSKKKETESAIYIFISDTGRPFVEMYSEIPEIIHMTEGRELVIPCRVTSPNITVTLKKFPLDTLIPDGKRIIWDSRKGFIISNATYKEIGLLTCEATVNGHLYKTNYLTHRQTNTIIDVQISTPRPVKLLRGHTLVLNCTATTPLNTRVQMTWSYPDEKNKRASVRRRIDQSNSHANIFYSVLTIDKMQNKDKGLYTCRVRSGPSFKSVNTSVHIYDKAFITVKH
Experiment: receptor-Fc IP
recorded-metric: binding result

1) 82-11 (ligand, clone entry) AHYNTEILKFMDVYQRSYCHPIETLVDIFQEFGVATNTFFKPPCVSVYRCGGCCNSEGLQCVPTEESNITMQIMRITVPLSQGPKPVTISFLQHNKCECRPKKDL = binds
2) 34-15 (ligand) GQNHHEVVKSIDNEWRKTQCMPIETLVDIFQEFGVATNTFFKPSCVPLMRCGGCCNSEGLQCVPTEESNITMQIMRITVPLSQGPKPVTISFANHTSCRCMSKLD = no binding
3) 53-6 (ligand) AHYNTEILKSIDNEWRKTQCMPIETLVDIFQEYPDEIEYIFKPPCVSVYRCGGCCNDEGLECMNTSTSYLSKTLFEIKPHQGQHIGEMSFANHTSCRCMSKLD = no binding
4) 61-1 (ligand) GQNHHEVVKFMDVYQRSYCHPREVCIDVGKEYPDEIEYIFKPSCVPLMRCGGCCNDEGLECVPTEESNITMQIMRIKPHQGQHIGEMSFLQHNKCECRPKKD = binds

These measurements were taken from patent US20080058263A1.
